Hey, just so you know, these numbers are from paper PMC8140157.

Biological target: T1, RTEL1∆762R1264H (human, UniProt Q9NZ71-6 762-1300, R1264H)
T1 sequence: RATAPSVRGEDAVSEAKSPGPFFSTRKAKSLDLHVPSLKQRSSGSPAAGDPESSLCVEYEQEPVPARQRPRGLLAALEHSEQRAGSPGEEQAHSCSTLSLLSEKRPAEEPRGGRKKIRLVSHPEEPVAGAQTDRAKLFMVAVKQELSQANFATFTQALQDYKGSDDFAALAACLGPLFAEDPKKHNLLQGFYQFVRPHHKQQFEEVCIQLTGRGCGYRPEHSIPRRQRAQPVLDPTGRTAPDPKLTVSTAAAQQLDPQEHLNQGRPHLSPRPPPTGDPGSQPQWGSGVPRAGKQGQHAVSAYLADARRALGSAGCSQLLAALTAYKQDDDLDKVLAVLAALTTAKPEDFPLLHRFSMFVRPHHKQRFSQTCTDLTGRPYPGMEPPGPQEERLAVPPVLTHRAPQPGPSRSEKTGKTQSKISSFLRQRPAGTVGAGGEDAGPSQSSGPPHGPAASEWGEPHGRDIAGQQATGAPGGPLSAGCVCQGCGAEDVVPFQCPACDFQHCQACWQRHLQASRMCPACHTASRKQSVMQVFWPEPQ
Experiment: competition (fluorescence anisotropy); vs FAM-TERRA-MUT, 200 nM; 20 mM Tris pH 7.5, 50 mM KCl, 0.5 mM TCEP, 0.5 mM MgCl2, 10% glycerol, 0.1% IGEPAL, room temperature 30 min; oligos refolded in 10 mM Tris pH 7.5, 100 mM KCl; EMSA legends give 150 or 300 mM KCl
Conditions: protein: recombinant; tags: 6xHis; no G4
MEASURED_METRIC: Ki (nM)
# output: bare number, implied unit nM

{"columns": ["BINDER", "UNIT_ABBREVIATION", "Ki"],
 "data": [
  ["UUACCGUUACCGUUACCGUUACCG (ssRNA) [TERRA-MUT competitor]", "nM", 850]
]}

Below: the item to evaluate.
Sample GGTTACCGTTACCGTTACCGTTACCGTTAG (ssDNA) [hTelo-MUT] — what was its Ki?
309
